B1: POU domain, class 3, transcription factor 4, residues 280 to 335; numbered along this chain, P49335 (parent)
chain: KKRTSIEVSVKGVLETHFLKCPKPAAQEISSLADSLQLEKEVVRVWFCNRRQKEKR

# Variants of: B1
# assaySummary: abundance fitness (aPCA) (normalised: wild type 0, dead -1); higher = more abundant; growth selection in yeast, the domain comes from the species named
# conditionContext: Homo sapiens
Class field: derived from abundance fitness; ranges LOW: < -0.8; MID: ≥ -0.8 and < -0.2; HIGH: ≥ -0.2

• V45H = HIGH

Hello team, could you let me know which band the following variant falls into: A33M LOW

Continue with A33G LOW

// repeat for K23M and report HIGH

Now the variant L32F LOW

Field entry: D34E HIGH
